In this section we review reported GI50 values for a set of compounds.
System: NCI-H226 lung
Experiment: NCI tumour cell line growth inhibition, 48 h

structureString: CCCCC[C@H]1C/C=C2/C(=O)C=C[C@@H]2C/C=C\CCCC(=O)O[C@@H](CCCCC)C/C=C2/C(=O)C=C[C@@H]2C/C=C\CCCC(=O)O1
GI50: 746 nM

structureString: O=S(=O)(Nc1ccc(Br)c(Cl)c1)c1ccc(-c2cnc(C3CC3)o2)cc1
GI50: 1230 nM

structureString: CCN(Cc1ccc(F)cc1)c1ccc(CO)c(F)c1
GI50: 171 nM

structureString: O=C1C(N2CC2)=C(N2CC2)C(=O)C(N2CC2)=C1N1CC1
GI50: 157 nM

structureString: COc1cccc(-n2nc(C)c3c(N/N=C(\C)c4ccncc4)ncnc32)c1
GI50: > 8390 nM

----------
System: U251 CNS
Outcome codes: 1 (active), -1 (inactive)

compound: O=C1c2cccc(NCCN=Cc3cc([N+](=O)[O-])ccc3O)c2C(=O)c2c(NCCN=Cc3cc([N+](=O)[O-])ccc3O)cccc21
assayedTarget: U251 CNS
assignedCategory: -1

compound: CCOC(=O)c1c2c(n(Cc3ccc(Cl)cc3Cl)c1C)-c1nc[nH]c1C(=O)C2=O
assayedTarget: U251 CNS
assignedCategory: -1

compound: CN[C@H](C#Cc1c(F)ccc2c1/C(=C/c1[nH]ccc1OC)C(=O)N2)CO
assayedTarget: U251 CNS
assignedCategory: 1

compound: CCCCC[C@H]1C/C=C2/C(=O)C=C[C@@H]2C/C=C\CCCC(=O)O[C@@H](CCCCC)C/C=C2/C(=O)C=C[C@@H]2C/C=C\CCCC(=O)O1
assayedTarget: U251 CNS
assignedCategory: 1

compound: COC(=O)[C@@]12OC[C@]34[C@H]([C@@H](O)[C@@H]1O)[C@@]1(C)[C@H](O)C(=O)C=C(C)[C@@H]1C[C@H]3OC(=O)C(OC(C)=O)[C@@H]24 (stereo not given in full)
assayedTarget: U251 CNS
assignedCategory: 1

compound: O=C1C(N2CC2)=C(N2CC2)C(=O)C(N2CC2)=C1N1CC1
assayedTarget: U251 CNS
assignedCategory: 1

compound: C1COCCN1.C1COCCN1.NC1CCCCC1N.[Cl-].[Pt+2] (stereo not given)
assayedTarget: U251 CNS
assignedCategory: -1

compound: CCOC(=O)c1cc2c(n1Cc1cccc(OC)c1)-c1oncc1CCC2
assayedTarget: U251 CNS
assignedCategory: -1

compound: O=c1cc(-c2ccccc2F)[nH]c2ccc(N3CCCC3)cc12
assayedTarget: U251 CNS
assignedCategory: 1

compound: Cc1cc(NCCN(C(C)C)C(C)C)nc(/N=C(\N)Nc2ccc(Cl)c(C(F)(F)F)c2)n1
assayedTarget: U251 CNS
assignedCategory: 1

compound: COc1cccc2c1ccc1nc3cccc(C(=O)N[C@H](C)CN(C)C)c3nc12
assayedTarget: U251 CNS
assignedCategory: 1

compound: NC(=O)c1ccccc1Nc1ccc2nnc(-c3ccncc3)n2n1
assayedTarget: U251 CNS
assignedCategory: -1

compound: O=c1cccccc1[O-].O=c1cccccc1[O-].[O]=[U+2]=[O]
assayedTarget: U251 CNS
assignedCategory: -1

compound: Cc1cc(O)c(C2=NN(c3ccc(S(N)(=O)=O)cc3)C(c3ccccc3Cl)C2)cc1Cl (stereo not given)
assayedTarget: U251 CNS
assignedCategory: -1

compound: COc1cc2c(cc1O)CC[C@@H]1[C@@H]2CC[C@]2(C)[C@@H](OCCN(C)C)CC[C@@H]12
assayedTarget: U251 CNS
assignedCategory: 1

compound: CCN(Cc1ccc(F)cc1)c1ccc(CO)c(F)c1
assayedTarget: U251 CNS
assignedCategory: -1

compound: COc1ccc(-c2nc(/C=N/Nc3cc(C)nc4ccc(Cl)cc34)c(C)o2)cc1
assayedTarget: U251 CNS
assignedCategory: -1

compound: C=C1/C(=C\C=C2/CCC[C@]3(C)[C@@H]([C@H](C)CCCC(C)(C)O)CC[C@@H]23)C[C@@H](OC(=O)CBr)C[C@@H]1O
assayedTarget: U251 CNS
assignedCategory: -1

compound: CNC(=O)c1cccc2cc(Oc3ccnc4cc(OCC5(N)CC5)c(OC)cc34)ccc12
assayedTarget: U251 CNS
assignedCategory: -1

compound: CCCCCCCCC/C=C/C=C/C(=O)NCC(=O)NC1C(O)C(O)C(Nc2ncnc3nc[nH]c23)OC1C(O)CO (stereo not given)
assayedTarget: U251 CNS
assignedCategory: 1

----------
System: U251 CNS
Experiment: NCI tumour cell line growth inhibition, 48 h
# label = true if TGI >= 40 µM else false

compound: Nc1nc(SCc2ccc([N+](=O)[O-])cc2)nc2c1ncn2C1OC(CO)C(O)C1O (centres undefined)
assignedCategory: true

compound: CCSc1nc2cccc([N+](=O)[O-])c2n1CC
assignedCategory: true

compound: COc1ccc(C(=O)/C=C/c2cccc([N+](=O)[O-])c2)c(OC)c1
assignedCategory: false

compound: CC(=O)C1=C(C)N(c2ccc(C)cc2)C2(O)C=CC(=O)C3C(=O)N(c4ccccc4)C(=O)C132 (centres undefined)
assignedCategory: true

compound: CN(C)CCN(C)c1ccc2c(=O)n(CCN(C)C)c(=O)n3c4ccccc4c(=O)c1c23
assignedCategory: false

compound: O=C1C(N2CC2)=C(N2CC2)C(=O)C(N2CC2)=C1N1CC1
assignedCategory: false

compound: CC(=O)Oc1ccc(-c2cc3ccccc3oc2=O)cc1
assignedCategory: true

compound: CC1=NN(c2cccc(Cl)c2)C2(SCC(=O)N2c2nc3ccccc3s2)/C1=C\c1cccs1 (centres undefined)
assignedCategory: true

----------
Tested on: HL-60(TB) leukemia
Assay: NCI tumour cell line growth inhibition, 48 h
metricName: TGI

compound: Cc1cc(Cl)ccc1Nc1nc(C(F)(F)F)ccc1C(=O)N/N=C/c1ccc(Cl)cc1
metricName: TGI
assayValue: 4.63 µM
--
compound: C=CCOC(=O)NC1C(OC(C)[C@@H](NC(=O)OCc2ccccc2)C(=O)OC(C)(C)C)OC(COC(C)=O)C(OC(C)=O)C1OC(C)=O (some centres undefined)
metricName: TGI
assayValue: > 100 µM
--
compound: Cc1cc2c(cc1Cl)S(=O)(=O)OC(c1ccc([N+](=O)[O-])cc1)=N2
metricName: TGI
assayValue: > 100 µM
--
compound: Cc1oc2c(C)c3oc(=O)cc(C)c3cc2c1CN1C(=O)C2OCCOCCOCCOCCOCCO[C@H]2C1=O (some centres undefined)
metricName: TGI
assayValue: > 100 µM

----------
In this section we review reported TGI values for a set of compounds.
Tested on: MCF7 breast
Test: NCI tumour cell line growth inhibition, 48 h

compound: CC1CC2OC(=O)C(C)C2CC2(C)C(OC3OC(CO)C(O)C(O)C3O)OCCC12 (stereo unspecified)
assayedTarget: MCF7 breast
TGI: > 100 µM

compound: Cc1cn(C2CC(O)C(COC(=O)NCCC(F)(F)C(F)(F)C(F)(F)C(F)(F)F)O2)c(=O)[nH]c1=O (stereo unspecified)
assayedTarget: MCF7 breast
TGI: > 100 µM

compound: Clc1cc2c(cc1Cl)CC(NCCN1CCCC1)CC2 (stereo unspecified)
assayedTarget: MCF7 breast
TGI: 31 µM

compound: CNCCCn1c2c(c3ccc([N+](=O)[O-])cc3c1=O)C(=O)c1cc(OC)cnc1-2
assayedTarget: MCF7 breast
TGI: 1.06 µM

compound: CCn1c(SCC(=O)NNC(=S)Nc2ccc([N+](=O)[O-])cc2)nc2ccccc2c1=O
assayedTarget: MCF7 breast
TGI: > 100 µM

compound: Cn1c2ccc3cc2c(=S)c2cc(ccc21)OCCOCCOCCOCCOCCO3
assayedTarget: MCF7 breast
TGI: > 10 µM

compound: O=S(Nc1ccccc1)c1cccc(Cl)c1 (stereo unspecified)
assayedTarget: MCF7 breast
TGI: > 100 µM

compound: CCCCCCCCCCCCCCCCOCC(CC(F)(F)P(=O)(OCC)OCC)OC(C)=O (stereo unspecified)
assayedTarget: MCF7 breast
TGI: 33.5 µM

compound: N#CCCN(CCCN(CCCN(C(=O)Nc1ccccc1)c1ccccc1)C(=O)Nc1ccccc1)C(=O)Nc1ccccc1
assayedTarget: MCF7 breast
TGI: > 100 µM

compound: c1csc(-c2cn3nc(-c4c[nH]c5ccccc45)sc3n2)c1
assayedTarget: MCF7 breast
TGI: 20.2 µM

compound: CNC(=O)OCc1c(CO)nc(SC)n1C
assayedTarget: MCF7 breast
TGI: > 100 µM

compound: Cc1cc(C(=C2C=CC(=Nc3ccccc3)C=C2)c2ccc(Nc3ccccc3)cc2)ccc1N
assayedTarget: MCF7 breast
TGI: 1.37 µM

compound: CCN(CC)/C(Sc1ccccc1)=C(\C(Cl)=C(Cl)Cl)[N+](=O)[O-]
assayedTarget: MCF7 breast
TGI: 30.2 µM

compound: CN(C)CCCNc1ccc([N+](=O)[O-])c2nc3ccccc3c(N)c12
assayedTarget: MCF7 breast
TGI: > 10 µM

compound: Cc1ccc(C(CC(=O)c2ccccc2)C2C(=O)NC(=O)NC2=O)cc1 (stereo unspecified)
assayedTarget: MCF7 breast
TGI: > 100 µM

compound: COc1ccc(-n2c(=O)[nH]n(C(C)=O)c2=O)cc1
assayedTarget: MCF7 breast
TGI: > 100 µM

compound: Cc1cc(NCCN(C(C)C)C(C)C)nc(/N=C(\N)Nc2ccc(Cl)c(C(F)(F)F)c2)n1
assayedTarget: MCF7 breast
TGI: 0.851 µM

compound: S=C1N(/N=C/c2c3ccccc3cc3ccccc23)C(=Nc2ccccc2)C(=Nc2ccccc2)N1c1ccccc1
assayedTarget: MCF7 breast
TGI: > 100 µM

compound: CCn1cnc(C[C@H](NC(=O)[C@@H](NC(=O)Nc2cc(C(F)(F)F)cc(C(F)(F)F)c2)C(C)C)C(=O)OC)c1
assayedTarget: MCF7 breast
TGI: 3.8 µM

compound: CCC1CN2C(=N1)c1ccccc1-c1cc(Cl)ccc12 (stereo unspecified)
assayedTarget: MCF7 breast
TGI: 14.1 µM

compound: CCCCc1ccc(Nc2nc(SC)c3[nH]cnc3n2)cc1
assayedTarget: MCF7 breast
TGI: > 100 µM
